# Tested on: Candida albicans
# assay_comment: Antimicrobial activity against Candida albicans 685 clinical isolate at 20 ug per disk after 18 to 24 hrs by agar diffusion assay
# Type: functional
# conditions: read-out: DIZ
zone of inhibition at 20 µg/disc reference
Write the number in mm without appending the unit.

The examples below pair each entry with its known result.
N/C(=N/NC(CC(=O)c1ccc(-n2ccnc2)cc1)c1ccccc1[N+](=O)[O-])c1ccccn1 (stereo not given) : 4
N/C(=N/NC(CC(=O)c1ccc(-n2ccnc2)cc1)c1cccc([N+](=O)[O-])c1)c1ccccn1 (stereo not given) : 10
N/C(=N/NC(CC(=O)c1ccc(-n2ccnc2)cc1)c1cccc(F)c1)c1ccccn1 (stereo not given) : 11
N/C(=N/NC(CC(=O)c1ccc(-n2ccnc2)cc1)c1ccc(Br)cc1)c1ccccn1 (stereo not given) : 8

In the following, a different compound is considered.
Record N/C(=N/NC(CC(=O)c1ccc(-n2ccnc2)cc1)c1ccccc1F)c1ccccn1 (stereo not given) . Reported zone of inhibition at 20 µg/disc: 5

---

# Tested on: Mycobacterium tuberculosis
# assay_comment: Antimycobacterial activity against Mycobacterium tuberculosis H37Ra […] after 7 days by resazurin microtiter assay
# Assay type: functional
# conditions: 168 h
Output condition met for records whose MIC is lower than 9 µM, condition not met for records at or above 9 µM.

Q: For this molecule, is MIC lower than 9 µM? N/C(=N/NC(CC(=O)c1ccc(-n2ccnc2)cc1)c1cccc(Cl)c1)c1ccccn1 (configuration not stated)
Ans: condition not met

Q: For this molecule, is MIC lower than 9 µM? N/C(=N/NC(CC(=O)c1ccc(-n2ccnc2)cc1)c1ccc([N+](=O)[O-])cc1)c1ccccn1 (configuration not stated)
Ans: condition met

---

# Tested on: Staphylococcus aureus
# assay_comment: Antimicrobial activity against Staphylococcus aureus ATCC 25923 at 20 ug per disk after 18 to 24 hrs by agar diffusion assay
# Type: functional
# conditions: read-out: DIZ
zone of inhibition at 20 µg/disc reference
Write the number in mm without appending the unit.

The examples below pair each entry with its known result.
N/C(=N/NC(CC(=O)c1ccc(-n2ccnc2)cc1)c1ccc(Cl)cc1Cl)c1ccccn1 (configuration not stated) : 17
N/C(=N/NC(CC(=O)c1ccc(-n2ccnc2)cc1)c1cccc(F)c1)c1ccccn1 (configuration not stated) : 16
N/C(=N/NC(CC(=O)c1ccc(-n2ccnc2)cc1)c1ccccc1F)c1ccccn1 (configuration not stated) : 14
N/C(=N/NC(CC(=O)c1ccc(-n2ccnc2)cc1)c1ccccc1[N+](=O)[O-])c1ccccn1 (configuration not stated) : 13
N/C(=N/NC(CC(=O)c1ccc(-n2ccnc2)cc1)c1ccccc1)c1ccccn1 (configuration not stated) : 14

Record N/C(=N/NC(CC(=O)c1ccc(-n2ccnc2)cc1)c1cccc(Cl)c1)c1ccccn1 (configuration not stated) . Reported zone of inhibition at 20 µg/disc: 22

Record N/C(=N/NC(CC(=O)c1ccc(-n2ccnc2)cc1)c1ccc(Cl)cc1)c1ccccn1 (configuration not stated) . Reported zone of inhibition at 20 µg/disc: 20

---

# Test system: Mycobacterium tuberculosis
# assay_comment: Antimycobacterial activity against Mycobacterium tuberculosis H37Ra […] after 7 days by resazurin microtiter assay
# Type: functional
# conditions: 168 h
reported_property: MIC (µM)
Write the number in µM without appending the unit.

The examples below pair each entry with its known result.
N/C(=N/NC(CC(=O)c1ccc(-n2ccnc2)cc1)c1ccccc1[N+](=O)[O-])c1ccccn1 (stereo not given) : 8.8
N/C(=N/NC(CC(=O)c1ccc(-n2ccnc2)cc1)c1ccc(F)cc1)c1ccccn1 (stereo not given) : 9.3
N/C(=N/NC(CC(=O)c1ccc(-n2ccnc2)cc1)c1ccc(Cl)cc1Cl)c1ccccn1 (stereo not given) : 9
N/C(=N/NC(CC(=O)c1ccc(-n2ccnc2)cc1)c1ccccc1Br)c1ccccn1 (stereo not given) : 32.7

In the following, a different compound is considered.
Record N/C(=N/NC(CC(=O)c1ccc(-n2ccnc2)cc1)c1cccc([N+](=O)[O-])c1)c1ccccn1 (stereo not given) . Reported MIC: 4.4
